# Tested on: OVCAR-4 ovarian
# assay procedure: NCI-60 one-dose screen, 48 h (100 = growth as untreated, 0 = no growth, -100 = all killed)
# setup conditions: 10 µM unless noted
# Procedure: Growth inhibition of the OVCAR-4 human tumor cell line is measured as a screen for anti-cancer activity. Cells are grown in 96 well plates and exposed to the test compound for 48 hours. Compounds are tested at a single concentration, which is 10^-5 M for most compounds. The reported endpoint is percent growth (GI% or GIPRCNT), where numbers from 0 - 100% represent growth inhibition, and numbers from -100% - 0 represent cell death. For example, a value of 40 represents 60% growth inhibition. […]
About 83,000 compounds went through this panel and 20% of them were active in at least one assay; those are over-represented in the sample as a whole.
measured property: growth (%)
Report as a plain number; the unit % is understood.

For orientation, consider the following solved cases.
Inquiry: GET /values?readout=growth&item= c1cnc2n[nH]c(Nc3ncnc4c3sc3ncccc34)c2c1
Reply text: 102

Inquiry: Cool, now COc1ccc(-c2nc3sccn3c2-c2ccnc(S(C)(=O)=O)n2)cc1
Reply text: 80.4

Inquiry: Cool, now COC(=O)[C@]1(CCSC)N[C@H](c2cn(-c3ccccc3)nc2C)[C@@H]2C(=O)N(c3ccccc3)C(=O)[C@@H]21
Reply text: 106

Inquiry: Cool, now COc1cccc2c1O/C(=C\c1c([N+](=O)[O-])ncn1C)C2=O
Reply text: 106

---
Inquiry: GET /values?readout=growth&item= CC(C)[C@H]1CC[C@H]2[C@@H](CC[C@H]3[C@](C)(CN)CCC[C@]23C)C1
Reply text: 67.6

Inquiry: Cool, now COC(=O)[C@]1(C(C)C)N[C@H](c2cn(-c3ccccc3)nc2-c2ccccc2)[C@@H]2C(=O)N(c3ccc(Cl)cc3)C(=O)[C@@H]21
Reply text: 117

Inquiry: Cool, now Clc1cccc(Cc2cn3cc(-c4ccccc4)nc3s2)c1
Reply text: 46.8

###

# Test system: NCI-H322M lung
# assay procedure: NCI-60 one-dose screen, 48 h
# setup conditions: 10 µM unless noted
About 83,000 compounds went through this panel and 20% of them were active in at least one assay; those are over-represented in the sample as a whole. The source made the active and inactive calls. Rule for the calls: active = growth percent below 10; inactive = the rest.
Write down the outcome that applies. Available outcomes: true (active), false (inactive)

These recorded examples may help you get a feel for the data.
Inquiry: Any idea what this test logged for CCCCCCCCCCCCCCCCN=C(CC(=O)O)C(=O)O ?
Reply text: false

Inquiry: Cool, now CN=C(NC)N/N=C(C)\C=N\NC(=NC)NC
Reply text: false

As a next step, examine the compound that follows.
Inquiry: Any idea what this test logged for Cn1cc(-c2nc(-c3c[nH]c4ncc(F)cc34)cs2)c2cccnc21 ?
Reply text: false

###

# System: UACC-257 melanoma
# assay procedure: NCI-60 one-dose screen, 48 h (100 = growth as untreated, 0 = no growth, -100 = all killed)
# setup conditions: 10 µM unless noted
# Protocol: Cells are grown in 96 well plates and exposed to the test compound for 48 hours. Compounds are tested at a single concentration, which is 10^-5 M for most compounds. The reported endpoint is percent growth (GI% or GIPRCNT), where numbers from 0 - 100% represent growth inhibition, and numbers from -100% - 0 represent cell death. For example, a value of 40 represents 60% growth inhibition. A value of 0 means no net growth occurred over the course of the experiment. […]
About 83,000 compounds went through this panel and 20% of them were active in at least one assay; those are over-represented in the sample as a whole.
# label = YES if growth < 80% else NO

These recorded examples may help you get a feel for the data.
Inquiry: In the record for C=C1CC[C@@H]2[C@](C)(COC(C)=O)[C@H](OC(C)=O)CC[C@@]2(C)[C@@H]1CC(Nc1ccc(S(=O)(=O)Nc2cc(C)on2)cc1)C1=CCOC1=O (stereo partly specified) , is growth less than 80%?
Reply text: YES

Inquiry: Cool, now c1cnc2ccc3ncccc3c2c1
Reply text: NO

Inquiry: Cool, now S=C(Nc1ccc(C2=NCCN2)cc1)Nc1ccc(C2=NCCN2)cc1
Reply text: NO

Inquiry: Cool, now COC(=O)[C@]1(CCSC)N[C@H](c2cn(-c3ccccc3)nc2C)[C@@H]2C(=O)N(c3ccccc3)C(=O)[C@@H]21
Reply text: NO

Inquiry: Cool, now COc1cc2c(-c3nc4cc(Cl)c(F)cc4s3)cc(=O)oc2c(C)c1OC
Reply text: YES

Inquiry: Cool, now ClC1C2CC(c3ccccc32)C1Cl (stereo unspecified)
Reply text: NO

Inquiry: Cool, now O=C(c1ccccc1)c1ccccc1Cl
Reply text: NO

As a next step, examine the compound that follows.
Inquiry: In the record for COc1ccc2c(c1)/C(=C\c1c[nH]c3ccc(F)cc13)C(=O)N2 , is growth less than 80%?
Reply text: NO

###

# Test system: OVCAR-4 ovarian
# assay procedure: NCI-60 one-dose screen, 48 h (100 = growth as untreated, 0 = no growth, -100 = all killed)
# setup conditions: 10 µM unless noted
This is part of a sample that, as a whole, favours compounds with a hit. Of some 83,000 tested, about 20% had one in any assay.
# Lookup of reported growth keyed by entry
Report as a plain number; the unit % is understood.

Inquiry: GET /values?readout=growth&item= C[C@@H]1CC[C@H]2[C@@H](C)C(O)O[C@@H]3O[C@]4(C)CC[C@@H]1[C@]32OO4 (stereo partly drawn)
Reply text: 40.2

Inquiry: Cool, now O=C1/C(=C/c2ccc3cccc(Cl)c3n2)SC(=S)N1CCc1ccc(O)cc1
Reply text: 96.6

---
Inquiry: GET /values?readout=growth&item= Clc1ccc(-n2cnc3c(Cl)ncnc32)cc1Cl
Reply text: 103

Inquiry: Cool, now Cn1c(=O)c2nc(SCc3ccccc3)n(C)c2n(C)c1=O
Reply text: 118

Inquiry: Cool, now COC1=CC(c2ccc[nH]2)=N/C1=C\c1[nH]c(C)c(C(=O)CCC(=O)Oc2ccc3c(c2)CCC2C3CC[C@]3(C)C(=O)CC[C@@H]23)c1C (stereo partly drawn)
Reply text: 67.7

Inquiry: Cool, now O=C(/C=C/c1cccnc1)NCCCCC1CCCN(C(=O)c2ccccc2)C1 (stereo not drawn)
Reply text: 89.2

Inquiry: Cool, now C[C@]12CC[C@@H]3c4ccc(O)cc4CC[C@H]3[C@@H]1CC[C@@H]2NS(=O)(=O)c1cccc(Br)c1
Reply text: 53.9

Inquiry: Cool, now CCCCCCCC/C=C/CCCCCCCC1=NC(C)(C)CN1CCO
Reply text: 52.3

Inquiry: Cool, now COc1ccc2nc(-c3ccc(-n4cncc4-c4ccc(OC)c(N)c4)cc3)sc2c1
Reply text: 87

Inquiry: Cool, now Cc1cc(O)c2c(c1)C[C@H]1[C@@H]3CC[C@H]4CC(=O)CC[C@]4(C)[C@H]3CC(=O)[C@]21C
Reply text: 109

Inquiry: Cool, now COc1ccc(CCN2CCCN3C2=Nc2ccccc2S3(=O)=O)cc1
Reply text: 54.1

###

# Lookup of reported growth keyed by entry
# Test system: K-562 leukemia
# assay procedure: NCI-60 one-dose screen, 48 h (100 = growth as untreated, 0 = no growth, -100 = all killed)
# setup conditions: 10 µM unless noted
About 83,000 compounds went through this panel and 20% of them were active in at least one assay; those are over-represented in the sample as a whole.
Report as a plain number; the unit % is understood.

For orientation, consider the following solved cases.
Inquiry: GET /values?readout=growth&item= O=C(/C=C/c1cc2ccccc2[nH]c1=O)c1ccc(Cl)cc1
Reply text: 17.1

Inquiry: Cool, now C[n+]1ccc(C#N)c2ccccc21
Reply text: 84.8

Could you now consider this next compound?
Inquiry: GET /values?readout=growth&item= OC(c1cc(C(F)(F)F)nc2c(C(F)(F)F)cccc12)C1CCCCN1 (stereo not drawn)
Reply text: 14.7

###

# System: SK-OV-3 ovarian
# assay procedure: NCI-60 one-dose screen, 48 h
# setup conditions: 10 µM unless noted
# Description: Growth inhibition of the SK-OV-3 human tumor cell line is measured as a screen for anti-cancer activity. Cells are grown in 96 well plates and exposed to the test compound for 48 hours. Compounds are tested at a single concentration, which is 10^-5 M for most compounds. The reported endpoint is percent growth (GI% or GIPRCNT), where numbers from 0 - 100% represent growth inhibition, and numbers from -100% - 0 represent cell death. For example, a value of 40 represents 60% growth inhibition. […]
This is part of a sample that, as a whole, favours compounds with a hit. Of some 83,000 tested, about 20% had one in any assay. Activity calls are given as the source filed them. How the source made its calls: active means growth percent below 10; inactive means the rest.
Write down the outcome that applies. Available outcomes: active, inactive

Inquiry: Any idea what this test logged for COc1cc(/C=C/C(=O)Nc2cccnc2Nc2cc(OC)c(OC)c(OC)c2)cc(OC)c1OC ?
Reply text: inactive

---
Inquiry: Any idea what this test logged for COc1ccc2nc3cc(Cl)ccc3c(N3CCN(c4ccnc(Nc5ccc(F)cc5)n4)CC3)c2c1 ?
Reply text: inactive

Inquiry: Cool, now CCC1=C(c2ccc(OC)cc2)C(C)(C)Oc2cc(O)c(CN3CCCC3)cc21
Reply text: inactive

Inquiry: Cool, now CC[N+](C)(CC)CCCC(C)Nc1ccnc2cc(Cl)ccc12 (centres undefined)
Reply text: inactive

Inquiry: Cool, now CCn1c2c(c3ccccc31)SC1c3cccn3CCN1C2=S (centres undefined)
Reply text: inactive

Inquiry: Cool, now CCOC(=O)/C=C(/C)Sc1cc(O)c2ccccc2c1O
Reply text: active
